Reference for the values: patent US9493446B2

Reported IC50 values are given for each entry in this list.
target under test: human orexin-2 receptor (Homo sapiens (Human))
Sequence (O43614 whole entry): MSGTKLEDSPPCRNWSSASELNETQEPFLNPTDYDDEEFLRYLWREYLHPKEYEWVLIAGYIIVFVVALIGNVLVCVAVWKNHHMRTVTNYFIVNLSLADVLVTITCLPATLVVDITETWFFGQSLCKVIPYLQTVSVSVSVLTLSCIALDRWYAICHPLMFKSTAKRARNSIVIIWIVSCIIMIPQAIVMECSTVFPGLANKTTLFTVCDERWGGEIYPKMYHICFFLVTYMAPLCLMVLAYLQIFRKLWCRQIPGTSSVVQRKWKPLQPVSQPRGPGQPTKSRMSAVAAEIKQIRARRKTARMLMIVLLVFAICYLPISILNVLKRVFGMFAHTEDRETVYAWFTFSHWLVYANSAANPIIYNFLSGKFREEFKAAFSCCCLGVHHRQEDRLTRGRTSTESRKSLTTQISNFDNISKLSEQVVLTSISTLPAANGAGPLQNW
assay: Intracellular calcium measurement (FLIPR), CHO cells expressing human orexin-2 receptor, 3 nM orexin-A
Type: cell-based
experimental conditions: CHO cells expressing human orexin-2 receptor, FLIPR, 3 nM orexin-A; geometric mean if determined several times; read-out: IC50 OX2
observed property: IC50 (nM)

| line notation | value comparator | reported value |
| --- | --- | --- |
| COc1c(F)cccc1-c1nc([C@@H]2CCCN2C(=O)c2cc(Cl)ccc2-n2nccn2)no1 | = | 3 |
| CCc1ccccc1-c1nc([C@@H]2CCCN2C(=O)c2cc(C)c(C)cc2-n2nccn2)no1 | = | 3 |
| Cc1cccc(-c2oc(C)nc2C(=O)N2CCC[C@H]2c2nc(-c3ccccc3OC(F)(F)F)no2)c1 | = | 62 |
| Cc1cc(-n2nccn2)c(C(=O)N2CCC[C@H]2c2nnc(-c3ccccc3OC(F)(F)F)[nH]2)cc1Cl | = | 2 |
| CCOc1ncccc1-c1nc([C@@H]2CCCN2C(=O)c2cc(C)ccc2-n2nccn2)no1 | = | 2 |
| C[C@@]1(c2nc(-c3ccccc3)no2)CCCN1C(=O)c1ccccc1-n1nccn1 | = | 2880 |
| COc1c(F)cccc1-c1nnc([C@@H]2CCCN2C(=O)c2ccc(Cl)cc2-n2nccn2)[nH]1 | = | 3 |
| COc1cc(C(=O)N2CCC[C@H]2c2cc(-c3cccc(Cl)c3C)on2)c(-n2nccn2)cc1C | = | 1 |
| COc1cccc(F)c1-c1noc([C@@H]2CCCN2C(=O)c2cc(C)ccc2-n2nccn2)n1 | = | 57 |
| Cc1ccc(-n2nccn2)c(C(=O)N2CCC[C@H]2c2cc(-c3ccccc3OC(F)(F)F)on2)c1 | = | 5 |
| COc1c(F)cccc1-c1nc([C@@H]2CCCN2C(=O)c2cccc(Cl)c2-n2nccn2)no1 | = | 111 |
| CCOc1c(F)cccc1-c1nc([C@@H]2CCCN2C(=O)c2cc(OC)c(Cl)cc2-n2nccn2)no1 | = | 2 |
| COc1cc(C(=O)N2CCC[C@H]2c2noc(-c3cccc(Cl)c3C)n2)c(-n2nccn2)cc1Cl | = | 2 |
| COc1cc(C(=O)N2CCC[C@H]2c2noc(-c3cccc(Cl)c3C)n2)c(-n2nccn2)cc1F | = | 6 |
| CCOc1ccccc1-c1noc([C@@H]2CCCN2C(=O)c2cc(C)c(C)cc2-n2nccn2)n1 | = | 1 |
| CCOc1ncccc1-c1nnc([C@@H]2CCCN2C(=O)c2cc(C)ccc2-n2nccn2)o1 | = | 95 |
| CCOc1ncccc1-c1nnc([C@@H]2CCCN2C(=O)c2cc(Cl)c(C)cc2-n2nccn2)[nH]1 | = | 8 |
| Cc1ccc(-n2nccn2)c(C(=O)N2CCC[C@H]2c2nc(-c3cccnc3OC(F)F)no2)c1 | = | 40 |
| COc1cc(C(=O)N2CCC[C@H]2c2nc(-c3cccc(F)c3OC)no2)c(-n2nccn2)cc1F | = | 10 |
| Cc1ccc(-c2ncco2)c(C(=O)N2CCC[C@H]2c2nc(-c3ccccc3OC(F)(F)F)no2)c1 | = | 12 |
| Cc1cccc(-c2oc(C)nc2C(=O)N2CCC[C@H]2c2nc(-c3cccc(Cl)c3C)no2)c1 | = | 91 |
| COc1cc(C(=O)N2CCC[C@H]2c2noc(-c3ccccc3OC(F)(F)F)n2)c(-n2nccn2)cc1C | = | 4 |
| CCc1cnc(-c2noc([C@@H]3CCCN3C(=O)c3cc(C)ccc3-n3nccn3)n2)cc1C | = | 271 |
| Cc1cc(C(=O)N2CCC[C@H]2c2nnc(-c3cccc(Cl)c3C)o2)c(-n2nccn2)cc1C | = | 5 |
| Cc1c(Cl)cccc1-c1noc([C@@H]2CCCN2C(=O)c2cccc(F)c2-n2cccn2)n1 | = | 146 |
| COc1c(F)cccc1-c1nnc([C@@H]2CCCN2C(=O)c2cc(C)c(C)cc2-n2nccn2)[nH]1 | = | 8 |
| COc1cc(-c2noc([C@@H]3CCCN3C(=O)c3cc(C)ccc3-n3nccn3)n2)cc(C)n1 | = | 155 |
| Cc1ccc(-c2ccccc2)c(C(=O)N2CCC[C@H]2c2nc(-c3cccc(Cl)c3C)no2)c1 | = | 11 |
| Cc1ccccc1-c1noc([C@@H]2CCCN2C(=O)c2cccs2)n1 | > | 10000 |
| Cc1c(Cl)cccc1-c1noc([C@@H]2CCCN2C(=O)c2ccccc2-n2nccn2)n1 | = | 28 |
| Cc1ccc(-n2nccn2)c(C(=O)N2CCC[C@H]2c2noc(-c3cccc(F)c3C)n2)c1 | = | 4 |
